- assayed-system: UniProt P0DMS8
- Sequence (P0DMS8 whole entry): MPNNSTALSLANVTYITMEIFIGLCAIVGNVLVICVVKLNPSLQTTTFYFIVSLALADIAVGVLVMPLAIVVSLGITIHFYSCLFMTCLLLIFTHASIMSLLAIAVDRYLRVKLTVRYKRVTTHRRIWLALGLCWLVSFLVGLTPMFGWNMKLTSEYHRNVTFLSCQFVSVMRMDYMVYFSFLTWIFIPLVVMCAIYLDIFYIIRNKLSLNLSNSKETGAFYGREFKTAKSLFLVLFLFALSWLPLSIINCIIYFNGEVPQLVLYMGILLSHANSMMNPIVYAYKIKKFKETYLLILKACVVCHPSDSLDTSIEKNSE
- assay-text: Percent displacement of [125I]-AB MECA from human Adenosine A3 receptor expressed in HEK 293 cells at 1 uM
- Format: cell-based
- run-conditions: HEK293
Would you mind telling me the reported Displacement of each entry?
Give just the number in %; leave the unit off.

Exam item: // fetch Displacement given entry O=C(Nc1nc(-c2ccccc2)cs1)c1ccc(Cl)cc1Cl
Marked response: 22

Exam item: // fetch Displacement given entry O=C(Nc1nc(-c2ccccc2)cs1)c1ccc(Br)cc1
Marked response: 58

Exam item: // fetch Displacement given entry O=C(Nc1nc(-c2ccccc2)cs1)c1ccc(Cl)c(Cl)c1
Marked response: 20

Exam item: // fetch Displacement given entry O=C(Nc1nc(-c2ccccc2)cs1)c1ccc(Cl)cc1
Marked response: 63

Exam item: // fetch Displacement given entry O=C(Nc1nc(-c2ccccc2)cs1)c1ccc(C(F)(F)F)cc1
Marked response: 18

Exam item: // fetch Displacement given entry Cc1ccc(C(=O)Nc2nc(-c3ccccc3)cs2)cc1
Marked response: 66

Exam item: // fetch Displacement given entry O=C(Nc1nc(-c2ccccc2)cs1)c1ccc([N+](=O)[O-])cc1
Marked response: 35

Exam item: // fetch Displacement given entry CC(C)(C)c1ccc(C(=O)Nc2nc(-c3ccccc3)cs2)cc1
Marked response: 27

Exam item: // fetch Displacement given entry O=C(Nc1nc(-c2ccccc2)cs1)c1cccc(Cl)c1
Marked response: 42

Exam item: // fetch Displacement given entry O=C(Nc1nc(-c2ccccc2)cs1)c1ccccc1
Marked response: 42

----------
- assayed-system: Adenosine receptor A2a (Rattus norvegicus) (UniProt P30543)
- Sequence (P30543 whole entry): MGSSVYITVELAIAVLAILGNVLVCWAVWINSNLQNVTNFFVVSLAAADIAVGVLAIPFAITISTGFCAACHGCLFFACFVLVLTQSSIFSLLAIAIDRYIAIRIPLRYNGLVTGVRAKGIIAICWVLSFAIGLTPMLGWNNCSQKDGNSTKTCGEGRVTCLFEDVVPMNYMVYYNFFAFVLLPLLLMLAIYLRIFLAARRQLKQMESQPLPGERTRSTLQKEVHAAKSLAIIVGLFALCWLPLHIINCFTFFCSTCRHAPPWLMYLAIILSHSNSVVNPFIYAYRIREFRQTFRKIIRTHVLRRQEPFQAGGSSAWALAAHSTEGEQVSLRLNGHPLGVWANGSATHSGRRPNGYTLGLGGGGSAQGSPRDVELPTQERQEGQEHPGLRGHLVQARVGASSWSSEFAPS
- assay-text: Percent displacement of [3H]ZM-241385 from A2A receptor in rat striatal membrane at 10 uM
- Assay type: cell membranes
- run-conditions: Striatum
reported-endpoint: Displacement (%)
Give just the number in %; leave the unit off.

Exam item: // fetch Displacement given entry O=C(Nc1nc(-c2ccccc2)cs1)c1ccccc1
Marked response: 21

Exam item: // fetch Displacement given entry O=C(Nc1nc(-c2ccccc2)cs1)c1ccc(Br)cc1
Marked response: 14

Exam item: // fetch Displacement given entry O=C(Nc1nc(-c2ccccc2)cs1)c1ccc(C(F)(F)F)cc1
Marked response: 0

Exam item: // fetch Displacement given entry O=C(Nc1nc(-c2ccccc2)cs1)c1cccc(Cl)c1
Marked response: 3

Exam item: // fetch Displacement given entry O=C(Nc1nc(-c2ccccc2)cs1)c1ccc(Cl)c(Cl)c1
Marked response: 6

Exam item: // fetch Displacement given entry O=C(Nc1nc(-c2ccccc2)cs1)c1ccc(Cl)cc1
Marked response: 15

Exam item: // fetch Displacement given entry O=C(Nc1nc(-c2ccccc2)cs1)c1ccc([N+](=O)[O-])cc1
Marked response: 9

Exam item: // fetch Displacement given entry Cc1ccc(C(=O)Nc2nc(-c3ccccc3)cs2)cc1
Marked response: 13

Exam item: // fetch Displacement given entry O=C(Nc1nc(-c2ccccc2)cs1)c1ccc(Cl)cc1Cl
Marked response: 17

Exam item: // fetch Displacement given entry CC(C)(C)c1ccc(C(=O)Nc2nc(-c3ccccc3)cs2)cc1
Marked response: 2

----------
- assayed-system: Adenosine receptor A1 (Rattus norvegicus)
- Sequence (P25099 whole entry): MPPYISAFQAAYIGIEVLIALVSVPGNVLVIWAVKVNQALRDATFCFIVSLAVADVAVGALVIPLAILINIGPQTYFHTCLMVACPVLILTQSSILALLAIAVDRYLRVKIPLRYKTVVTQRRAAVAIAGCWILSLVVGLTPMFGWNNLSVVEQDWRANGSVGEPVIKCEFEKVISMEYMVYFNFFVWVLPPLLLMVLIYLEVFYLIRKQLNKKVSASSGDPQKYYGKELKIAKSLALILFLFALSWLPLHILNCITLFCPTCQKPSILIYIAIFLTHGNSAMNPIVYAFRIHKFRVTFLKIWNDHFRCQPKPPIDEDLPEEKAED
Would you mind telling me the reported Ki of each entry?
Give just the number in nM; leave the unit off.

Exam item: // fetch Ki given entry O=C(Nc1nc(-c2ccccc2)cs1)c1ccccc1
Marked response: 39

Exam item: // fetch Ki given entry O=C(Nc1nc(-c2ccccc2)cs1)c1ccc(Cl)cc1
Marked response: 18

Exam item: // fetch Ki given entry Cc1ccc(C(=O)Nc2nc(-c3ccccc3)cs2)cc1
Marked response: 36

Exam item: // fetch Ki given entry O=C(Nc1nc(-c2ccccc2)cs1)c1ccc(Cl)c(Cl)c1
Marked response: 59

Exam item: // fetch Ki given entry O=C(Nc1nc(-c2ccccc2)cs1)c1cccc(Cl)c1
Marked response: 86
